# System tested: T1, PUF4 RNA-binding domain (Saccharomyces cerevisiae, UniProt P25339 537-888)
# T1 sequence: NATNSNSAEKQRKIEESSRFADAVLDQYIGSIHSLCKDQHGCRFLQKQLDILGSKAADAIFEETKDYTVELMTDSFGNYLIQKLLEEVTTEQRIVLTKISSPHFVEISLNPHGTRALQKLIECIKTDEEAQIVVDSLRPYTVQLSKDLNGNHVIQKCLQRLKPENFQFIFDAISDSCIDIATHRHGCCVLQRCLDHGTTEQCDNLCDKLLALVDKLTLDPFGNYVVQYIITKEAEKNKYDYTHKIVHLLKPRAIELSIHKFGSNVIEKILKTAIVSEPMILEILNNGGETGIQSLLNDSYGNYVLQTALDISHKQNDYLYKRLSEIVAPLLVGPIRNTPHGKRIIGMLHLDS
# Test description: Mg; RNA-MaP; 20 mM Na-HEPES pH 7.4, 30 mM KOAc, 0.75 mM MgCl2, 0.1% Tween-20, 5% glycerol, 0.1 mg/mL BSA, 2 mM DTT; 25 C; 0.0125-409.6 nM protein
# Measurement conditions: tags: N-His6-TEV cleaved; C-SNAP kept, Cy3B-labelled; label: tethered on chip by stalled RNA polymerase
Consider the following binders; for each one, report its Kd.
Answer with a number only, understood to be in nM.

Problem: Which Kd reading was recorded for the binder UCUCUUUGUAUUAUCGUCUCUU (ssRNA) [Ib_S1_P5E.1_K5.1_C5.1_H5.1_A5.1_F5.1_[T9C]_[A10G]_T5.1] ?
Result: 30.6

Problem: Which Kd reading was recorded for the binder Ia_S4_P5E.1_K5.1_C5.1_H5.1_A5.1_[T6A]_F5.1_T5.1 (ssRNA) RNA: UUUGACAACUGAUCGUUCUUUCUUGUAUAAUUAUUCUUUCUCGAUCAGUUGUCUUU ?
Result: 4.42

Problem: Which Kd reading was recorded for the binder UCUCUUUCCUCUGUAUAUUAUCUCUU (ssRNA) [Ie_S1_P4E.1_K4.1_C4.1_H4.1_[+1CCTCT]_A4.1_F4.1_T4.1] ?
Result: 0.539

Problem: Which Kd reading was recorded for the binder Ic_S2_P5E.1_K5.1_C5.1_H5.1_A5.1_[T5G]_[T6C]_F5.1_[T8G]_[T9C]_[A10T]_T5.1 (ssRNA) RNA: UUUGAUUAAUAUGAUAUCGUUCUUUCUUGUAGCAGCUUUCUUUCUCGAUAUCAUAUUAAUCUUU ?
Result: 905
